ASSAY_OVERVIEW: chemical genetic growth profiling, strain panel (AID 1159580);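 note: tested at 20 µM; growth read once vehicle control cultures reached saturation at 30 °C; 1 = growth at the plate median or of vehicle wells; lower values mean less growth of the strain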
PARTICULARS: S. cerevisiae deletion strains, growth OD, locus YGL086W, strain mad1, active compounds read low
Out of some 5,500 compounds screened, about 2,000 (36%) were called active. About 18% were inconclusive and are not listed. The list shows a part of the results.

| MOLECULE | normalized growth |
| --- | --- |
| CN(C)CCCN1c2ccccc2CCc2ccccc21 | 1.01 |
| CCCN(CCC)S(=O)(=O)c1ccc(C(=O)O)cc1 | 1 |
| CCC(C)C(=O)OC1[C@@H]2CC3=C4CC(=O)O[C@@H](c5ccoc5)[C@]4(C)CCC3[C@@](C)(C2=O)[C@@H](CC(=O)OC)C1(C)C (stereo not given in full) | 1 |
| NC(Cn1ccc(=O)c(O)c1)C(=O)O (stereo not given) | 1 |
| CCN(CC)CCOC(=O)C1(C2CCCCC2)CCCCC1 | 0.971 |
| CC(=O)O[C@@H]1CC2C(C)(C)[C@H](O)C=C[C@]2(C)C2CC[C@]3(C)C(=CC(=O)O[C@H]3c3ccoc3)[C@@]21C (stereo not given in full) | 0.993 |
| CCCc1c(OCCCCc2nn[nH]n2)ccc(C(C)=O)c1O | 1 |
| COc1ccc(C2Sc3ccccc3N(CCN(C)C)C(=O)C2OC(C)=O)cc1 (stereo not given) | 1.02 |
| C=C(C)C1CCC(C)(O)C2CC3OC3(C)C2C1 (stereo not given) | 1.02 |
| N[C@@H](CCC(=O)N[C@@H](CS)C(=O)NCC(=O)O)C(=O)O | 0.987 |
| CS(=O)(=O)c1ccc([C@@H](O)[C@@H](CO)NC(=O)C(Cl)Cl)cc1 | 1 |
| CC(C)(C)NCC(O)c1ccc(O)c(CO)c1 (stereo not given) | 1.01 |
| O=P1(N(CCCl)CCCl)NCCCO1 (stereo not given) | 1.03 |
| COc1cc(C/C=C/c2ccccc2)c(OC)cc1O | 0.986 |
| CNCCCC12CCC(c3ccccc31)c1ccccc12 | 0.969 |
| Nc1ccc(C(=O)O)cc1 | 1 |
| CC(CCc1ccccc1)NCC(O)c1ccc(O)c(C(N)=O)c1 (stereo not given) | 1.01 |
| CC(C)c1ccc2c(c1)CCC1[C@](C)(CN)CCC[C@]21C (stereo not given in full) | 0.167 |
| CC(C)c1ccc2c(c1)CCC1C(C)(C(N)=O)CCCC21C (stereo not given) | 0.894 |
| C/C1=C/CC(C)(C)/C=C/C/C(C)=C/CC1 | 1 |
| CC(CCC(=O)O)[C@H]1CCC2C3CC[C@@H]4CC(=O)CC[C@]4(C)C3C=C[C@@]21C (stereo not given in full) | 0.971 |
| CC(N=C(NC#N)Nc1ccncc1)C(C)(C)C (stereo not given) | 1 |
| Cc1c(C)c2c(c(C)c1O)CCC(C)(CCCC(C)CCCC(C)CCCC(C)C)O2 (stereo not given) | 1.02 |
| Nc1ccc(S(=O)(=O)NC(=O)c2ccccc2)cc1 | 1.01 |
| CC(C)CC1NC(=O)CNC1=O (stereo not given) | 1.03 |
| CCCSc1ccc2nc(NC(=O)OC)[nH]c2c1 | 0.974 |
| CN(C)CCCN1c2ccccc2Sc2ccc(C(F)(F)F)cc21 | 0.998 |
| O=C(O)c1cccnc1 | 1.02 |
| COc1ccc2cc(CCC(C)=O)ccc2c1 | 0.942 |
| NC1=NCCN1CC(=O)O | 0.98 |
